MEASURED_TARGET: NIH/3T3 cells overexpressing FGFR3 WT-TACC3 fusion protein (Homo sapiens, UniProt P22607)
Construct: fused on or other part: Q9Y6A5 (Transforming acidic coiled-coil-containing protein 3)
Sequence (P22607 whole entry, change not shown, the tested form may be a part): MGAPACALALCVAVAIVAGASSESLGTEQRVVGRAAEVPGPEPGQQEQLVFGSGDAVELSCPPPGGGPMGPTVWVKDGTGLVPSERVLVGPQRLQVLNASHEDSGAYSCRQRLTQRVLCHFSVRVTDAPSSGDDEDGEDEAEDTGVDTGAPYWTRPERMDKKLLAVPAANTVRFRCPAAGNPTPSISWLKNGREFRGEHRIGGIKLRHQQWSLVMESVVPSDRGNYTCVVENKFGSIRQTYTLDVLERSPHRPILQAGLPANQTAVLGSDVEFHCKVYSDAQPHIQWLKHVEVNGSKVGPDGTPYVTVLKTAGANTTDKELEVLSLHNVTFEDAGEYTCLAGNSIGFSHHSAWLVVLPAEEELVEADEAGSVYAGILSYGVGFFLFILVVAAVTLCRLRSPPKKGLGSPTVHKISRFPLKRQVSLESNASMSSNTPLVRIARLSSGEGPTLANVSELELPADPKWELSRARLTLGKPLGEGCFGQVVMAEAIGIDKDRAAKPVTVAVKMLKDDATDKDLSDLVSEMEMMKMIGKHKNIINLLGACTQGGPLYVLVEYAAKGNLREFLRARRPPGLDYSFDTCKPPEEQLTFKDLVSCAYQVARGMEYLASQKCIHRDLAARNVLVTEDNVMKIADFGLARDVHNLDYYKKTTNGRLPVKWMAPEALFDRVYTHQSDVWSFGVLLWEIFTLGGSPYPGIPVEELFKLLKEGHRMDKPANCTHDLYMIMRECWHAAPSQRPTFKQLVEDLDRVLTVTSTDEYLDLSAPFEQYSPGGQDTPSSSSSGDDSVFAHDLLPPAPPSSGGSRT
ASSAY_EXPLANATION: NIH/3T3 FGFR3 WT-TACC3 cell proliferation assay
Assay type: cell-based
EXPERIMENTAL_CONTEXT: 72-hr incubation, CellTiter Glo; read-out: NIH/3T3 FGFR3 WT-TACC3 CTG (IC50)
Flag rule - GI50 less than 50 nM flags Satisfied; the remaining entries get Not satisfied.

For COc1cc2nc(-c3c(NC(c4ncccn4)C(C)C)c4nn(C)cc4[nH]c3=O)[nH]c2cc1OC (single isomer, unassigned) [Compound 27] , is the recorded GI50 below the cut-off of 50 nM?
Satisfied

For COc1cc2[nH]c(-c3c(N[C@@H](C)c4ncccn4)c4nn(C)cc4[nH]c3=O)nc2cn1 [Compound 30] , is the recorded GI50 below the cut-off of 50 nM?
Satisfied

For COc1cc2[nH]c(-c3c(N[C@@H](C)c4ncccn4)c4nn(C)cc4[nH]c3=O)nc2c(F)c1OC [Compound 55] , is the recorded GI50 below the cut-off of 50 nM?
Not satisfied

For COc1cnc2nc(-c3c(NC(c4ncccn4)C(C)C)c4nn(C)cc4[nH]c3=O)[nH]c2c1 (single isomer, unassigned) [Compound 40] , is the recorded GI50 below the cut-off of 50 nM?
Not satisfied

For CC(C)C(Nc1c(-c2nc3cnc(N(C)C)cc3[nH]2)c(=O)[nH]c2cn(C)nc12)c1ncccn1 (single isomer, unassigned) [Compound 11] , is the recorded GI50 below the cut-off of 50 nM?
Not satisfied

Continue with the compound presented below.
For CC(C)C(Nc1c(-c2nc3ccc(C(=O)N(C)C)cc3[nH]2)c(=O)[nH]c2cn(C)nc12)c1ncccn1 (single isomer, unassigned) [Compound 10] , is the recorded GI50 below the cut-off of 50 nM?
Not satisfied
